Reference source for all entries: patent US20260265391A1

- studySystem: T1, cynomolgus CD40 overexpressed on CHO-S cells (cynomolgus, UniProt G7PG38 21-278)
- T1 construct: whole, on cells; also called cynomolgus CD40 expressing CHO cells
- protocol: flow cytometry on CHO-S cells overexpressing cynomolgus CD40
measuredAttribute: pEC50
# reply with the number alone; pEC50 is -log10 of concentration in mol/L

See these solved cases before continuing.
binder	pEC50
ADI-47720 (antibody, human IgG1, kappa, V domains shown) VH: EVQLVESGGGLVQPGRSLRLSCAASGFTFDDYAMHWVRQAPGKGLEWVSGISWSSGSIGYADSVKGRFTISRDNAKNSLYLQMNSLRAEDTAVYYCAKDPTATTGARGYFDLWGRGTLVTVSS VL: DIQMTQSPSSVSASVGDRVTITCRASQGISSWLAWYQQKPGKAPKLLIYAASSLQSGVPSRFSGSGSGTDFTLTISSLQPEDFATYYCQQRASFPPTFGGGTKVEIKR	8.26
ADI-55147 (antibody, human IgG1, kappa, V domains shown) VH: QVQLVESGGGVVQPGRSLRLSCAASGFTFGSYGMHWVRQAPGKGLEWVAVISYEGVKKYYADSVKGRFTISRDNSKNTLYLQMNSLRAEDTAVYYCARDTSRGHDIWGQGTMVTVSS VL: EIVLTQSPGTLSLSPGERATLSCRASQSVSYDYLAWYQQKPGQAPRLLIYGASARANGIPDRFSGSGSGTDFTLTISRLEPEDFAVYYCQQYADYPPFTFGGGTKVEIKR	8.35

# input for lookup
Incoming: Look up pEC50 of ADI-55136 (antibody, human IgG1, kappa, V domains shown) VH: QVQLVESGGGVVQPGRSLRLSCAASGFTFSSYGMHWVRQAPGKGLEWVAVISYHASSKYYADSVKGRFTISRDNSKNTLYLQMNSLRAEDTAVYYCARDTSRGHDIWGQGTMVTVSS VL: EIVLTQSPGTLSLSPGERATLSCRASQSVSSSYLAWYQQKPGQAPRLLIYGASSRATGIPDRFSGSGSGTDFTLTISRLEPEDFAVYYCQQYADYPPFTFGGGTKVEIKR and report it.
Outgoing: 8.32
